# Test system: MS2 coat protein
# assay_procedure: apparent KD of MS2 coat protein; designed switch direction (-1 OFF switch, 1 ON switch): -1; higher = weaker reporter binding
# test_context: input ligand: microRNA oligo, concentration not stated
measured_endpoint: apparent KD of MS2 coat protein (nM)
Numbers only, in nM.

{"columns": ["monomer_sequence", "apparent KD of MS2 coat protein / nM"],
 "data": [
  ["GUGUAGUCAGGAUAUACAUAGGAAGAGAAGAGAAGAGAAGCACAUGAGGAUCACCCAUGUAGAAGGGACAGUGU [Excluse me!! 4 - Jieux - Exclusion 2] (Eterna round: R96, puzzle: Exclusion 2)", 40.1]
]}

Next sequence, apparent KD of MS2 coat protein to be filled in.
Requested read-out apparent KD of MS2 coat protein, target or system MS2 coat protein, entry UACAUGAGGAUCACCCAUGUUUUGUCGUGUAUGGUAUUUAUCUAGGAUAUCAAUGUAUUUAUUUAUGAGAAGGAGAAUAUUAAU [JMF's solution 12] (Eterna round: R96, puzzle: Exclusion NG 3) 29.6

====

# Test system: MS2 coat protein
# assay_procedure: apparent KD of MS2 coat protein; higher = weaker reporter binding
# test_context: Eterna round: R107; input ligand: tryptophan 2.4 mM
Each entry falls into one class according to its apparent KD of MS2 coat protein; the ranges are low class (below 20 nM), middle class (20 nM to below 90 nM), high class (90 nM or more)

Class label required: GUAGGUCAGUGAUCCCGACCUACACUGGAAGGAGCGAGCGAAAGCUCAGGUAGGUCGCCAGAAACAUGAGGAUCACCCAUGUAAU [(A)''-(M)'-(A)'-(Arg1)-(Arg2)-(M1)-(M2)_Design1] high class

Class label required: `UGUAUGGACUGAAGGAGCGGGAAAAUAACUUGAGGAUCACCCAGGUAAAAGGCGAAAGCCACCCAGGUAGGUCGCAGUCCAUACU` middle class

====

Provide the reported apparent KD of K4 kissing-loop reporter of each item.
# Tested on: K4 kissing-loop RNA reporter;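 note: bound reporter read as fluorescence of individual clusters on recovered sequencing chips by microscopy, with normalized cluster intensities fitted with a binding model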
# assay_procedure: apparent KD of K4 kissing-loop reporter; higher = weaker reporter binding
# test_context: Eterna round: R107; input ligand: theophylline 20 uM
Answers are plain numbers, in nM.

{"columns": ["monomer_sequence", "assay_target", "apparent KD of K4 kissing-loop reporter / nM"],
 "data": [
  ["AAUAUCUAGUAUAUUUUUAAUAAAACAGAUACCAGUGAUAAUAGACACCCUUGGCAGCUGGUCGAGUGAUGUUCGUUUAUUUUAA [JR_SSTheophyA_Sub005]", "K4 kissing-loop RNA reporter", 168],
  ["AGCAUUUUCAGAAGGAGCGUGAAUUAUUCUUAAGUAUAUUAUACGAGUGAUGUUCGUAUUUCACAGGUAGGUCGCUGAUAUAGCA [JR_SSArginiB_Sub003]", "K4 kissing-loop RNA reporter", 76.2],
  ["UGACUGGACUGAAGGAGCGCGAAACUCCUAGUGAUGUUAGGAAUACGAGACAAAGUCUCGACGCAGGUAGGUCGCAGUCUAGUCU [ArgBS 16 #SwitchBubble #StaticStem]", "K4 kissing-loop RNA reporter", 110],
  ["CACUUACGUAGUGAUGUUACGAUCUCUGAUACCAGACAACUCUAAGUCCCUUGGCAGCAGUCAUUUUGCUUAUUAUUUACUCAAA [JR_ExcTheophyA_Sub017]", "K4 kissing-loop RNA reporter", 663],
  ["GAUAGUUAGAGAGAUACCAGCGAUACCUAGAUGGAAAGUGAUGUUCGCCAUCAAUUGCACCGCCCUUGGCAGCUCUCUCUUUGCU [theeternabot_exclusion_KL_Theo_B_37]", "K4 kissing-loop RNA reporter", 974]
]}

Next sequence, apparent KD of K4 kissing-loop reporter to be filled in.
Consider the sequence shown here: UGUAUGGACUGAAGGAGCGCUAGGAGUGUGAGUGAUGUUCAUACAAAUGUAUAGAUGGUCUGGCAGGUAGGUCGCAGUCCAUACU [KL-SSArg B4] What is its recorded apparent KD of K4 kissing-loop reporter? 156
